assay: chemical genetic growth profiling, strain panel (AID 1159580);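 note: tested at 20 µM; growth read once vehicle control cultures reached saturation at 30 °C; 1 = growth at the plate median or of vehicle wells; lower values mean less growth of the strain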; settings: S. cerevisiae deletion strains, growth OD, locus YER155C, strain BEM2 (second series), stronger effect = lower value
In all, about 5,500 compounds went through this assay and about 2,000 (36%) were called active. Another 18% or so got no clear call; they are omitted. The list shows a part of the results.
REPORTED PROPERTY: normalized growth
Give your answer as a number; write no unit.

// worked examples, normalized growth included
MOLECULE | VAL
C[C@]12CCC3C(CC[C@]4(O)C[C@@H](O)CC[C@]34C=O)[C@@]1(O)CCC2C1=CC(=O)OC1 (some centres undefined) | 1.06
COC1C(O)C(O[C@H]2CC[C@]3(C=O)C4C(CC[C@]3(O)C2)[C@@]2(O)CC[C@H](C3=CC(=O)OC3)[C@@]2(C)C[C@H]4OC(C)=O)OC(C)C1OC(C)=O (some centres undefined) | 1.04
C[C@H]1O[C@@H](O[C@H]2[C@@H](O)C[C@H](O[C@H]3[C@@H](O)C[C@H](O[C@H]4CC[C@]5(C)C6C[C@@H](O)[C@]7(C)[C@@H](C8=CC(=O)OC8)CC[C@]7(O)C6CC[C@@H]5C4)O[C@@H]3C)O[C@@H]2C)C[C@H](O)[C@@H]1O (some centres undefined) | 1.04

# next molecule below
Ask: Tell me measured normalized growth for COC(=O)C[C@H]1C(C)(C)[C@@H](O)[C@@H]2CC3=C4CC(O)O[C@@H](c5ccoc5)[C@]4(C)CCC3[C@@]1(C)C2=O (some centres undefined) please.
Reply: 1.08
